Quick reference: Inhibition of the listed items.
tested on: Plasmodium falciparum; test: GSK_TCMDC: Inhibition of Plasmodium falciparum 3D7 in whole red blood cells, using parasite LDH activity as an index of growth. Test compounds present at 2uM; format: functional
Entry rule: numbers only, all in %.

# Inhibition lookup, item O=C(N[C@@H](Cc1ccccc1)C(=O)NCCN1CCCC1)c1ccc(O)c(-c2ccc(Cl)c(Cl)c2)c1
95

# Inhibition lookup, item CNC(=O)c1ccccc1Nc1nc(Nc2ccc(C(=O)O)cc2)ncc1Cl.Cl
92

# Inhibition lookup, item Cc1cccc(C)c1C1CCN(C2CCC(NC(=O)/C=C/c3ccccc3)CC2)CC1 (stereo not drawn)
100

# Inhibition lookup, item CCOC(=O)c1ccc(N2CCN(c3cc(Cl)ccc3C)CC2)c(NC(=O)Nc2ccc(Cl)c(Cl)c2)c1
99

# Inhibition lookup, item Br.Clc1ccc(-c2nc(-c3ccncc3)c[nH]2)cc1Cl
96

New cases:
# Inhibition lookup, item CN(C)C(CNC(=O)c1cc(-c2ccncc2)c(-c2ccc(NC(=O)Nc3cccc(F)c3)cc2)o1)c1ccccc1.O=C(O)C(F)(F)F (stereo not drawn)
100

# Inhibition lookup, item Cc1[nH]c(C)c(-c2ccc(-c3ccccc3F)nc2)c(=O)c1Cl
97

# Inhibition lookup, item CC(C)c1ccc(CN2CCC(NC(=O)c3ccc(-c4cccc(Cl)c4)s3)CC2)cc1.O=C(O)C(F)(F)F
82

# Inhibition lookup, item COc1cc2nc(C)nc(Nc3ccc(Cc4ccccc4)cc3)c2cc1OC.Cl
100

# Inhibition lookup, item Cc1cc(N(C)C)nc(Nc2ccc(NC(=O)c3ccccc3C)cc2)n1
93

# Inhibition lookup, item CN(C)CCNC(=O)N1CCCN(c2ncnc3cc(-c4ccc(Cl)cc4)sc23)CC1.O=C(O)C(F)(F)F
98

# Inhibition lookup, item Clc1cc(Cl)cc(Nc2ccnc(Nc3cc(Cl)cc(Cl)c3)n2)c1
99

# Inhibition lookup, item Cc1cccc2nc(-c3ccc(-c4cccc(NC(=O)Nc5ccc(Cl)c(Cl)c5)c4)s3)[nH]c12
100

The measurements presented in this section are drawn from ChEMBL document CHEMBL1157539.
